Listing of recorded log10 of MIC by entry.
# System: Acinetobacter baumannii
# Method: Antibacterial activity against Acinetobacter baumannii 3304 after 16 to 20 hrs by microdilution susceptibility test
# Format: functional
Please interpret these as log10 of MIC where MIC is in µM.

Look over these answered cases.
Compound	log10 of MIC
CCCCc1ccc(C(=O)Nc2ccc3[nH]c(N)nc3c2)cc1	2.00
CC(C)(C)c1ccc(C(=O)Nc2ccc3[nH]c(N)nc3c2)cc1	2.00
CN(C)[C@@H]1C(O)=C(C(N)=O)C(=O)[C@@]2(O)C(O)=C3C(=O)c4c(O)cccc4[C@@](C)(O)[C@H]3C[C@@H]12	1.40
CCCCCCCc1ccc(C(=O)Nc2ccc3[nH]c(N)nc3c2)cc1	1.70
CCCCCCCCCC(=O)Nc1ccc2[nH]c(N)nc2c1	1.40

Input: Recorded log10 of MIC for CCCCCCc1ccc(C(=O)Nc2ccc3[nH]c(N)nc3c2)cc1 , please?
Output: 1.70

Input: Recorded log10 of MIC for CCCCCCCCCCCC(=O)Nc1ccc2[nH]c(N)nc2c1 , please?
Output: 1.10

Input: Recorded log10 of MIC for C[C@@H](O)[C@H]1C(=O)N2C(C(=O)O)=C(SCCNC=N)C[C@H]12 [IMIPENEM ANHYDROUS] , please?
Output: 2.30

Input: Recorded log10 of MIC for CCCCCc1ccc(C(=O)Nc2ccc3[nH]c(N)nc3c2)cc1.Cl , please?
Output: 1.40
